Subject Of Test: Trypanothione reductase (Trypanosoma cruzi)
Sequence (P28593 whole entry): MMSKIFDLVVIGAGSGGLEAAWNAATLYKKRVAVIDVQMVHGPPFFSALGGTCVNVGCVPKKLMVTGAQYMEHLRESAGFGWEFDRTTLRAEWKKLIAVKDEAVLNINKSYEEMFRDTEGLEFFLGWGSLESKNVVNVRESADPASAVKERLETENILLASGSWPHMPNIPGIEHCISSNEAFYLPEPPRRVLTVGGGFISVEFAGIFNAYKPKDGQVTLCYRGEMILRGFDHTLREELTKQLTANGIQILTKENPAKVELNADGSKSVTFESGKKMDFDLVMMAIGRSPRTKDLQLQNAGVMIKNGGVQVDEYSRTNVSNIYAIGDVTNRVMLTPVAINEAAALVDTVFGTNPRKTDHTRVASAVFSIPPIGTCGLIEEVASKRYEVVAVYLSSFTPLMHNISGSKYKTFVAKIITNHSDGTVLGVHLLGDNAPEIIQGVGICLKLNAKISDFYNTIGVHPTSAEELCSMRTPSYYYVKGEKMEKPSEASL
Assay Name: Inhibitory activity against Trypanosoma cruzi trypanothione disulfide reductase, assay in presence of 57 uM T(S)2.
Assay Endpoint: IC50 (µM)
Enter your answer as a number in µM; do not include the unit.

Examples with their reported IC50 follow.
{"columns": ["Smiles Data", "Experimental Value"],
 "data": [
  ["CN1CCN(C(=O)CCCCCC2=C(CCCCCC(=O)N3CCN(C)CC3)C(=O)c3c(O)cccc3C2=O)CC1", 2.9],
  ["CC1=C(NCCCN2CCN(CCCN)CC2)C(=O)c2c(O)cccc2C1=O", 39],
  ["CC1=C(CCCCCC(=O)NCCCN2CCN(CCCNC(=O)CCCCCC3=C(C)C(=O)c4cccc(O)c4C3=O)CC2)C(=O)c2c(O)cccc2C1=O", 1.6],
  ["CC1=C(CCCCC(=O)NCCCNCCCNC(=O)CCCCC2=C(C)C(=O)c3cccc(O)c3C2=O)C(=O)c2c(O)cccc2C1=O", 0.45],
  ["CC1=C(CCCCCC(=O)NCCCNCCCNC(=O)CCCCCC2=C(C)C(=O)c3cccc(O)c3C2=O)C(=O)c2c(O)cccc2C1=O", 2],
  ["CC1=C(NCCCN2CCN(CCCNC3=C(C)C(=O)c4ccccc4C3=O)CC2)C(=O)c2ccccc2C1=O", 10],
  ["CN1CCN(C(=O)CCCC2=C(CCCC(=O)N3CCN(C)CC3)C(=O)c3c(O)cccc3C2=O)CC1", 17.5],
  ["CC1=C(CCCCCC(=O)NCCCNCCCNC(=O)CCCCCC2=C(C)C(=O)c3ccccc3C2=O)C(=O)c2ccccc2C1=O", 2.5],
  ["CC1=C(CCCC(=O)NCCCN2CCN(CCCNC(=O)CCCC3=C(C)C(=O)c4cccc(O)c4C3=O)CC2)C(=O)c2c(O)cccc2C1=O", 2.3],
  ["CC1=C(CCCC(=O)NCCCNCCCNC(=O)CCCC2=C(C)C(=O)c3ccccc3C2=O)C(=O)c2ccccc2C1=O", 11]
]}

Query: Item: CC1=C(CCCC(=O)NCCCCNCCCNC(=O)CCCC2=C(C)C(=O)c3cccc(O)c3C2=O)C(=O)c2c(O)cccc2C1=O Test system: Trypanothione reductase (Trypanosoma cruzi) Read-out: IC50 Value: ?
Response: 2.3

Query: What about CC1=C(CCC(=O)NCCCCNCCCNC(=O)CCC2=C(C)C(=O)c3ccccc3C2=O)C(=O)c2ccccc2C1=O ?
Response: 2.7

Query: What about CC1=C(CCC(=O)N2CCN(C)CC2)C(=O)c2c(O)cccc2C1=O ?
Response: 50
